target: SpNOX (Streptococcus pneumoniae)
Sequence (Q8CZ28 1-400): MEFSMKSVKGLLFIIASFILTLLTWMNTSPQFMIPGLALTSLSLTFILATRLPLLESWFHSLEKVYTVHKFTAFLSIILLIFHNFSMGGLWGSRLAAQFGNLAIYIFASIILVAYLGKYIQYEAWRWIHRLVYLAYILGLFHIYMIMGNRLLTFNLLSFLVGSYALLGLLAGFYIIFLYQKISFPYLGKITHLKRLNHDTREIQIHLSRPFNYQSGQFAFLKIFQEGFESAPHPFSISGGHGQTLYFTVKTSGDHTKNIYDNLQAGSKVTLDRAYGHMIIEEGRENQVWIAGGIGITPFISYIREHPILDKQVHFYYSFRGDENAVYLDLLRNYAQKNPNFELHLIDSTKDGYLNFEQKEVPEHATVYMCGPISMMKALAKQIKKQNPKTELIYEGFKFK
measurementName: IC50

Quick check: IC50 on SpNOX (Streptococcus pneumoniae), item `c1ccc2c(c1)[I+]c1ccccc1-2` ?
~5 µM
